system: K-562 leukemia; assay: NCI tumour cell line growth inhibition, 48 h
TGI for assorted molecules

# molecule, target-entity, TGI
records = [
    ("COc1oc(C(=O)NC2CCCCC2)c(-c2ccc(Cl)cc2)c1S(=O)(=O)c1ccccc1", "K-562 leukemia", "> 52.4 µM"),
    ("O=C1Nc2ccc(Cl)cc2C(=O)N2CCC[C@@H]12", "K-562 leukemia", "> 100 µM"),
    ("O=C1C(c2ccc([N+](=O)[O-])cc2)=[N+]([O-])c2ccc([N+](=O)[O-])cc21", "K-562 leukemia", "> 100 µM"),
    ("O=C(O)c1ccc(Cc2ccccc2C(=O)O)cc1", "K-562 leukemia", "> 100 µM"),
    ("Nc1cc(C(=O)NC2C3CC4CC(C3)CC2C4)[nH]c(=S)n1 (stereo unspecified)", "K-562 leukemia", "> 100 µM"),
    ("Cc1csc(-n2nc(C)cc2C)n1", "K-562 leukemia", "> 100 µM"),
    ("COc1cc(/C=C2\\CCc3ccccc3C2=O)ccc1O", "K-562 leukemia", "79.7 µM"),
    ("NC(N)=N/N=C/c1oc(-c2ccc(S(=O)(=O)O)o2)c(-c2ccc(S(=O)(=O)O)o2)c1[N+](=O)[O-]", "K-562 leukemia", "> 100 µM"),
    ("O=C(Nn1cc(F)c(=O)[nH]c1=O)C12CC3CC(CC(C3)C1)C2", "K-562 leukemia", "> 75.9 µM"),
    ("CCSC(=O)N1c2ccc(OC)cc2C=CC1C#N (stereo unspecified)", "K-562 leukemia", "> 1000 µM"),
    ("Cc1cc(C)c2ccc(N3CCNCC3)nc2n1", "K-562 leukemia", "> 100 µM"),
]

---

system: U251 CNS; test: NCI tumour cell line growth inhibition, 48 h

# molecule, target-entity, TGI
data = [
    ("CC(C)(C)OC(=O)NC(Cc1ccc(OCc2ccccc2)cc1)C(=O)NC(COCc1ccccc1)C(=O)Oc1c(Cl)c(Cl)c(Cl)c(Cl)c1Cl (centres undefined)", "U251 CNS", "38.1 µM"),
    ("CCn1c2ccccc2c2nnc(NCCCO)nc21", "U251 CNS", "> 100 µM"),
    ("COc1ccc(NC(=O)CC(=O)NN)cc1", "U251 CNS", "> 100 µM"),
    ("CCOC(=O)C(Cc1c(C=O)[nH]c2ccccc12)(NC(=O)c1ccccc1)C(=O)OCC", "U251 CNS", "25.5 µM"),
    ("O=C(Nc1ccc(F)cc1)C(=O)C(C(=O)c1ccccc1F)C1OC(=O)c2ccccc21 (centres undefined)", "U251 CNS", "66.1 µM"),
    ("O=C(CC(C(=O)c1ccc(F)cc1)c1ccsc1)c1cccs1 (centres undefined)", "U251 CNS", "> 100 µM"),
    ("O=C(COc1ccc2c(=O)cc(-c3ccc(Cl)cc3)oc2c1)N1CCN(c2ccccc2)CC1", "U251 CNS", "> 100 µM"),
    ("O=C(c1ccccc1)C(c1ccccc1)C1(O)C(=O)Nc2c(Cl)ccc(Cl)c21 (centres undefined)", "U251 CNS", "78.8 µM"),
    ("NC(N)=N/N=C/c1oc(-c2ccc(S(=O)(=O)O)o2)c(-c2ccc(S(=O)(=O)O)o2)c1[N+](=O)[O-]", "U251 CNS", "> 100 µM"),
]
